Measured pEC50, listed per entry for reference.
Target: T1, hu-M-IL1RAP construct, positions S21-T367 (extracellular domain of the membrane form of human IL1RAP) (human, UniProt Q9NPH3 21-367)
T1 construct: Biotinylated when captured on the Biacore chip
T1 sequence: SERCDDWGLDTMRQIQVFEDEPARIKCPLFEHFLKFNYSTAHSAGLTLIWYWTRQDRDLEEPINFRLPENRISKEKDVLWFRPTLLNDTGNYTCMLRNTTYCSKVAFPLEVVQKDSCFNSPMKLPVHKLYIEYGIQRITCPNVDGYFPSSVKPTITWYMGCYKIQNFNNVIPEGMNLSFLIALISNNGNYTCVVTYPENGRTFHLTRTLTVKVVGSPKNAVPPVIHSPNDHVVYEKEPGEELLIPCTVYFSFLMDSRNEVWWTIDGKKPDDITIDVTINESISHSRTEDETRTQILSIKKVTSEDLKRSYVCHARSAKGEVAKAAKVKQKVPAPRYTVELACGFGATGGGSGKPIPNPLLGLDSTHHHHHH
Assay: ELISA, purified mAb
pEC50: −log10 of the molar value.
Measured parameter: pEC50

Binder | Measured parameter | Numeric readout
9D5 (purified mAb from hybridoma 9D5) (antibody, V domains shown, Mouse hybridoma mAb) VH: QVQLQQSGAELARPGASVKFSCKASGYTFTSYWMQWVKQRPGQGLEWIGTIYPGDGNTRYTQKFKGKATLTADKSSSTAYMQLSGLASEDSAVYYCARGYFGNLVFDVWGAGTTVTVSS VL: DIKMTQSPSSMYASLGERVTITCKASQDINTYLSWFLQKPGKSPKTLIYRADRLVDGVPSRFSGGGSGQDYSLTISSLEYEDLGIYYCLQYDEFPYTFGSGTKLEIK | pEC50 | 10.41
10A11 (purified mAb from hybridoma 10A11) (antibody, V domains shown, Mouse hybridoma mAb) VH: EVQLQQSGAELVKPGASVRLSCTSSGFNIKDYFMHWVKQRTEQGLEWVGRIDPEDGETQYAPNFQDKATITVDTSSNTVYLQLSSLTSEDTAVYYCFRPLYYGNSPWFAYWGQGTLVTVSP VL: DIQMTQTTSSLSASLGDRVTISCRASQDISNYLNWYQQKPDGTVKLLIYYTSTLHSGVPSRFSGSGSGTDYSLTISNLEPEDIATYYCHQYSKFPPTFGSGTKLEIK | pEC50 | 10.41
13D8 (purified mAb from hybridoma 13D8) (antibody, V domains shown, Mouse hybridoma mAb) VH: EVQLVESGGGLVKPGGSLKLSCTASGFTFSNYAMSWVRQTPEKRLEWVATISDGGNYTYYPDNVKGRFTISRDIAKNNLYLQMSHLKSEDTAMYYCARDRWPYFFDFWGQGTTLTVSS VL: DIQMTQSPASLSVSVGETVTITCRASDNIYSNLAWYQEKQGKSPQLLVYGATNLADGVPSRFSGSGSGTQYSLKINSLQSEDFGSYYCQHFWTTPRSFGGGTKLELK | pEC50 | 10.41
8H1 (purified mAb from hybridoma 8H1) (antibody, V domains shown, Mouse hybridoma mAb) VH: QVQLQQSGPELVKSGASVRISCKASGYAFSGSWMNWVKQRPGKGLEWIGRIYPGDGNTNYNGKFKDKATLTADKSSSTAFMQLSSLTSEDSAVYFCARDYYLFYFDYWGQGTTLTVSS VL: NIVMTQTPKFLPVAAEDRVIITCKASQDVSNEVAWYQQKPGQSPKLLMYYASNRYTGVPDRFTGSGSGTDFTFTISSVQVEDLAVYFCQQHYSSPLTFGAGTKLELK | pEC50 | 9.58
